Biological target: human calcium receptor (Homo sapiens, UniProt P41180)
Construct: expressed in transfected cells
Assay: Calcium Receptor Inhibitor Assay
Type: cell-based
Settings: HEK 293 4.0–7 cells stably expressing the human calcium receptor; fluo-3; read-out: IC50 for blocking increases of intracellular Ca2+ elicited by extracellular Ca2+
Counter-ions that a name gives are not always drawn.
PROPERTY MEASURED: IC50

Some compounds with known IC50 results, for comparison:
# COMPOUND, STUDY TARGET, IC50
records = [
    ("COc1ccc(CC(C)(C)NC[C@@H](O)COc2ccc3c(c2)[nH]c2ccccc23)cc1 [Compound 167]", "human calcium receptor (Homo sapiens, UniProt P41180)", "< 1 µM"),
    ("COC(=O)c1ccccc1OCC(O)CNC(C)(C)Cc1ccc(OC)cc1 (centres unmarked) [Compound 134, Hydrochloride]", "human calcium receptor (Homo sapiens, UniProt P41180)", "< 1 µM"),
    ("COc1ccc(CC(C)(C)NCC(O)COc2ccc(Cl)c(Cl)c2)cc1 (centres unmarked) [Compound 139, Hydrochloride]", "human calcium receptor (Homo sapiens, UniProt P41180)", "< 1 µM"),
    ("CC(C)(Cc1ccc(OC(F)(F)F)cc1)NCC(O)COc1ccccc1 (centres unmarked) [Compound 111, Hydrochloride]", "human calcium receptor (Homo sapiens, UniProt P41180)", "< 10 µM"),
    ("COc1ccc(CC(C)(C)NCC(O)COc2ccc(F)cc2)cc1 (centres unmarked) [Compound 44, Hydrochloride]", "human calcium receptor (Homo sapiens, UniProt P41180)", "< 1 µM"),
]

Prompt: Which IC50 is reported with human calcium receptor (Homo sapiens, UniProt P41180) for this entry: CCC(CC)(Cc1ccc(OC)cc1)NCC(O)COc1ccccc1 (centres unmarked) [Compound 114, Hydrochloride] ?
Completion: < 10 µM

Prompt: Item: CC(C)(Cc1ccccc1)NCC(O)COc1ccccc1 (centres unmarked) [Compound 56, Hydrochloride] Test system: human calcium receptor (Homo sapiens, UniProt P41180) Read-out: IC50 Value: ?
Completion: < 50 µM

Prompt: Entry CC(C)(Cc1cccc2ccccc12)NCC(O)COc1ccccc1 (centres unmarked) [Compound 92] , system human calcium receptor (Homo sapiens, UniProt P41180): what IC50 was measured?
Completion: > 50 µM

---

# IC50 annotations
Target: human calcium receptor (Homo sapiens, UniProt P41180)
Construct: expressed in transfected cells
Assay: Calcium Receptor Inhibitor Assay
Format: cell-based
Conditions: HEK 293 4.0–7 cells stably expressing the human calcium receptor; fluo-3; read-out: IC50 for blocking increases of intracellular Ca2+ elicited by extracellular Ca2+
Counter-ions that a name gives are not always drawn.

Solved entries:
# COMPOUND, IC50
records = [
    ("COc1ccc(CC(C)(C)NCC(O)COc2ccc(C(C)C)cc2)cc1 (centres unmarked) [Compound 145, Hydrochloride]", "< 1 µM"),
    ("CC(C)(Cc1ccccc1)NCC(O)COc1cccc2ccccc12 (centres unmarked)", "> 50 µM"),
]

Prompt: Would you mind telling me what IC50 value was observed for COc1ccc(CC(C)(C)NCC(O)CCc2cccc3ccccc23)cc1 (racemic) ?
Completion: < 10 µM

Prompt: Please give the measured IC50 for this compound: CCCN(CCC)S(=O)(=O)c1ccc(OC[C@H](O)CNC(C)(C)Cc2ccc(OC)cc2)c(Cl)c1Cl [Compound 165, hydrochloride salt]
Completion: < 1 µM

Prompt: Quick check: IC50 of COc1ccc(CC(C)(C)NCC(O)COCC23CC4CC(CC(C4)C2)C3)cc1 (centres unmarked) [Compound 74, Hydrochloride] ?
Completion: < 1 µM

Prompt: I have this compound here, COc1ccc(CC(C)(C)NC[C@@H](O)COc2cccc(Cl)c2C#N)cc1 [Compound 109, Hydrochloride] , and I need its recorded IC50.
Completion: < 1 µM

Prompt: What value of measured IC50 is listed for COc1ccc(CC(C)(C)NCC(O)COc2ccc(OC)c(OC)c2)cc1 (centres unmarked) [Compound 132, Hydrochloride] ?
Completion: < 10 µM

Prompt: Find the recorded IC50 belonging to CCOc1cccc(OCC(O)CNC(C)(C)Cc2ccc(OC)cc2)c1 (centres unmarked) [Compound 147, Hydrochloride] and report it.
Completion: < 10 µM

---

Biological target: human calcium receptor (Homo sapiens)
Construct: expressed in transfected cells
Assay: Calcium Receptor Inhibitor Assay
Type: cell-based
Conditions: HEK 293 4.0–7 cells stably expressing the human calcium receptor; fluo-3; read-out: IC50 for blocking increases of intracellular Ca2+ elicited by extracellular Ca2+
pIC50: −log10 of the molar value. Counter-ions that a name gives are not always drawn.
PROPERTY MEASURED: pIC50

Prompt: # query: pIC50 of entry Cc1ccc(CC(C)(C)NCC(O)COc2ccccc2)cc1 (centres unmarked) [Compound 98, Hydrochloride]
Completion: > 5.00

Prompt: Consider the compound shown here: COc1ccc(CC(C)(C)NCC(O)COc2cc(Cl)cc(OC)c2)cc1 (centres unmarked) [Compound 157, Hydrochloride] What is its recorded pIC50?
Completion: > 6.00

Prompt: # query: pIC50 of entry CC(C)(Cc1ccc(Cl)cc1)NCC(O)COc1ccccc1 (centres unmarked) [Compound 103, Hydrochloride]
Completion: > 5.00

Prompt: Name the reported pIC50 value associated with the compound CCc1cccc(OCC(O)CNC(C)(C)Cc2ccc(OC)cc2)c1 (centres unmarked) [Compound 150, Hydrochloride]
Completion: > 6.00

Prompt: I'd like to know its pIC50. The compound in question is COc1ccc(CC(C)(C)NCC(O)COc2cccc3[nH]c(C(N)=O)cc23)cc1 (centres unmarked) [Compound 9, Hydrochloride]
Completion: > 4.30

---

Molecular target: human calcium receptor (Homo sapiens)
Construct: expressed in transfected cells
Sequence (P41180 20-1078): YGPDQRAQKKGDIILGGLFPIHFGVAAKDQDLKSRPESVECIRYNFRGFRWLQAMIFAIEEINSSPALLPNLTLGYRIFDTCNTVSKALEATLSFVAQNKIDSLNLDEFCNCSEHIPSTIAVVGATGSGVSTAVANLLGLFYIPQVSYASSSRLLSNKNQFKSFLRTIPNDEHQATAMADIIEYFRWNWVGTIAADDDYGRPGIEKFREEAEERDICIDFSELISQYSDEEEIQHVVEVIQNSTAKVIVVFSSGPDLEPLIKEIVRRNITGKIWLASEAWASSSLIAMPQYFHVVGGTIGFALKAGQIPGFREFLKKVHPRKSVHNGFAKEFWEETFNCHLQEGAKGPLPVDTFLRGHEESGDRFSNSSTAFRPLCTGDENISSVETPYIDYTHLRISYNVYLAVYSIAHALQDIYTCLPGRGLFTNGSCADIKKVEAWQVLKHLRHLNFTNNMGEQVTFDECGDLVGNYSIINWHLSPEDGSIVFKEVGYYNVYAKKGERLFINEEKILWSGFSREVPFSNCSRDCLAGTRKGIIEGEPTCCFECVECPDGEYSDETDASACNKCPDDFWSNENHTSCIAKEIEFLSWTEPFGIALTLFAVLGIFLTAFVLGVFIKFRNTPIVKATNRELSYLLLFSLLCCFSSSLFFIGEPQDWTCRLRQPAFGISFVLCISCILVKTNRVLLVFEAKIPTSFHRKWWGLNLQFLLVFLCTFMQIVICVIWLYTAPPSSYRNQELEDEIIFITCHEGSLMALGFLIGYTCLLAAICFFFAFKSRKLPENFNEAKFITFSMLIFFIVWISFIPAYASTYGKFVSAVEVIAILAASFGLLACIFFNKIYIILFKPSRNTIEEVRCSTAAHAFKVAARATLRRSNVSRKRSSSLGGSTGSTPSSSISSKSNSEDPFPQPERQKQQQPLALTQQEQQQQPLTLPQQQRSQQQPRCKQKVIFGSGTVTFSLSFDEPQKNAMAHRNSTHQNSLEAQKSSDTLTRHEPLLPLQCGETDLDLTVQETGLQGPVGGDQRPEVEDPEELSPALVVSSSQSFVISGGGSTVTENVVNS
Assay: Calcium Receptor Inhibitor Assay
Assay type: cell-based
pIC50: −log10 of the molar value. Counter-ions that a name gives are not always drawn.
Measured pIC50 accompanies every entry in the list below.

# COMPOUND, pIC50
data = [
    ("CCCCCCCCOCC(O)CNC(C)(C)Cc1ccc(OC)cc1 (stereo not shown) [Compound 65]", "> 6.00"),
    ("COc1ccc(CC(C)(C)NCC(O)COC(C)(C)C)cc1 (stereo not shown) [Compound 25]", "> 4.30"),
    ("COc1ccc(CC(C)(C)NCC(O)CCc2ccccc2)cc1 (stereo not shown) [Compound 79, Hydrochloride]", "> 4.30"),
]

Prompt: Requested read-out: pIC50. Entry: COc1ccc(CC(C)(C)NCC(O)Cc2ccccc2)cc1 (stereo not shown) [Compound 37, Hydrochloride]
Completion: > 5.00

---

We begin with a simple list: items and their reported pIC50.
Target: human calcium receptor (Homo sapiens, UniProt P41180)
Construct: expressed in transfected cells
Assay: Calcium Receptor Inhibitor Assay
Format: cell-based
Details: HEK 293 4.0–7 cells stably expressing the human calcium receptor; fluo-3; read-out: IC50 for blocking increases of intracellular Ca2+ elicited by extracellular Ca2+
pIC50: −log10 of the molar value. Counter-ions that a name gives are not always drawn.

Some solved cases for reference:
# COMPOUND, RESULT
rows = [
    ("COc1ccc(CC(C)(C)NCC(O)COc2cccc(Cl)c2)cc1 (stereo not shown) [Compound 43, Hydrochloride]", "> 6.00"),
    ("COc1ccc(CC(C)(C)NCC(O)COc2ccccc2)cc1C (stereo not shown) [Compound 117, Hydrochloride]", "> 6.00"),
    ("COc1ccc(CC(C)(C)NCC(O)COc2ccc(NC(C)=O)cc2)cc1 (stereo not shown)", "< 4.30"),
]

Now let's try a different one.
Prompt: Please report the recorded pIC50 for COc1ccc(CC(C)(C)NCCOc2ccccc2)cc1 .
Completion: < 4.30
